System: H1975
Experiment: MTT cytotoxicity assay, H1975
Format: cell-based, human
Conditions: 72 h of incubation
Measured metric: IC50

Compound	Assayed target	Measured metric	Measured result
CCN(CC)C1=[S+][Au-][P+](c2ccccc2)(c2ccccc2)C[P+](c2ccccc2)(c2ccccc2)[Au-][S]1.O=S(=O)(O)C(F)(F)F [Compound 4, [Au2-dppm-dedt] (OTf)]	H1975	IC50	< 190 nM

====

Tested on: human nasopharyngeal carcinoma (SUNE1)
Test: MTT cytotoxicity assay, SUNE1
Assay type: cell-based
Conditions: 72 h of incubation
Measured metric: IC50 (nM)

Compound	Measured metric	Unit name	Measured result
CCN(CC)C1=[S+][Au-][P+](c2ccccc2)(c2ccccc2)C[P+](c2ccccc2)(c2ccccc2)[Au-][S]1.O=S(=O)(O)C(F)(F)F [Compound 4, [Au2-dppm-dedt] (OTf)]	IC50	nM	1620
CCN(CC)C1=[S+][Au-][P+](C2CCCCC2)(C2CCCCC2)C[P+](C2CCCCC2)(C2CCCCC2)[Au-][S]1.O=S(=O)(O)C(F)(F)F [Compound 3, [Au2-dcpm-dedt] (OTf)]	IC50	nM	670
